MEASURED ON: Cyclin-dependent kinase 2 (Homo sapiens) (UniProt P24941)
MEASUREMENT CONDITIONS: at 1 µM
Listed below: inhibition values for each entry.
Give the quantity in %, number only.

# STRUCTURE, MEASURED ON, inhibition / %
measured = [
    ("COC(=O)c1cncc(/C=C/c2c(C)cc(O)cc2C)c1", "Cyclin-dependent kinase 2 (Homo sapiens) (UniProt P24941)", 5.75),
]

Any idea what its inhibition is? The molecule is `Cc1ccc(Nc2ccnc(Nc3cccc(C(N)=O)c3)n2)cc1O`
7.62

Could you do the same for `COc1cccc(-n2ncc3c(N/N=C/c4ccc(C)cc4)ncnc32)c1` , please?
7.81

Could you do the same for `Nc1nccc(-c2c(-c3ccc(F)cc3)nn3cc(C(F)(F)F)ccc23)n1` , please?
0.2

Could you do the same for `NS(=O)(=O)c1cccc(-c2cc3ccncc3cc2OCc2ccccc2)c1` , please?
6.78

Could you do the same for `NC(=O)c1sc(-n2cnc3ccccc32)cc1OCc1ccccc1Br` , please?
8.08

###

MEASURED ON: Activated CDC42 kinase 1 (Homo sapiens)
MEASUREMENT CONDITIONS: at 1 µM
Description: GSK_PKIS: TNK2 mean inhibition at 1 uM [Nanosyn]
Listed below: inhibition values for each entry.
Give the quantity in %, number only.

# STRUCTURE, UNIT DESCRIPTOR, inhibition
data = [
    ("Cc1ccc2c(-c3ccnc(Nc4ccc5c(c4)OCCO5)n3)c(-c3ccc(C(F)(F)F)cc3)nn2n1", "%", 0.6),
    ("COc1cc(Nc2nccc(-c3cnn4ncccc34)n2)cc(OC)c1", "%", 35.6),
    ("O=C(Nc1ccc(Oc2ccc3[nH]c(NC(=O)c4ccco4)nc3c2)cc1)Nc1cc(C(F)(F)F)ccc1F", "%", 0.5),
    ("CCS(=O)(=O)c1ccc(OC)c(Nc2nccc(N(C)c3ccc4c(C)n[nH]c4c3)n2)c1", "%", 22.8),
    ("NS(=O)(=O)c1cccc(Nc2cc(-c3ccc(F)cc3)n[nH]2)c1", "%", 2.57),
]

Lab note: next compound to report on.
Any idea what its inhibition is? The compound is `C[C@@H](Oc1cc(-n2cnc3ccc(OCC4CCN(C)CC4)cc32)sc1C(N)=O)c1ccccc1C(F)(F)F`
46.1

###

Listed below: inhibition values for each entry.
MEASURED ON: Protein kinase C beta type (Homo sapiens) (UniProt P05771)
Sequence (P05771 2-671 limits assumed): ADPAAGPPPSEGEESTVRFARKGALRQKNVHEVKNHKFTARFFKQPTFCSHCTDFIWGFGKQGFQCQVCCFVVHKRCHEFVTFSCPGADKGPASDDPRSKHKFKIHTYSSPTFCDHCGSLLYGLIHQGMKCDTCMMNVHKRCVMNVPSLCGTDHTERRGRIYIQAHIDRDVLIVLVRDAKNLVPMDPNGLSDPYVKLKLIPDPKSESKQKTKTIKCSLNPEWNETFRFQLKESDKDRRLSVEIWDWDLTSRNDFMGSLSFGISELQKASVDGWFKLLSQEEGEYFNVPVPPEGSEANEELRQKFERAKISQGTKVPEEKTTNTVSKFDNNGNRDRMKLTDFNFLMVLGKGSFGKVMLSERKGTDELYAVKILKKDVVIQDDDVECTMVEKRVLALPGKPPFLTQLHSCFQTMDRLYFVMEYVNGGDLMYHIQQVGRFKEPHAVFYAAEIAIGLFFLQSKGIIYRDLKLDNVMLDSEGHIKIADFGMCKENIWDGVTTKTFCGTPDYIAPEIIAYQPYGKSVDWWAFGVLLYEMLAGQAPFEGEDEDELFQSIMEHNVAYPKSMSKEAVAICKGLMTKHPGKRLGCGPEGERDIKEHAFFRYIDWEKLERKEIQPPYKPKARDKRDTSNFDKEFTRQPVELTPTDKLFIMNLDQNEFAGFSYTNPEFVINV
MEASUREMENT CONDITIONS: at 0.1 µM
Description: GSK_PKIS: PKC-beta2 (splice variant) mean inhibition at 0.1 uM [Nanosyn]
Give the quantity in %, number only.

The cases that follow already have their inhibition on record.
# COMPOUND, MEASURED ON, inhibition [%]
rows = [
    ("COc1cc2ncn(-c3cc(OCc4ccccc4S(C)(=O)=O)c(C#N)s3)c2cc1OC", "Protein kinase C beta type (Homo sapiens) (UniProt P05771)", 1.55),
    ("CN(C)CCCn1c(-c2nonc2N)nc2cnccc21", "Protein kinase C beta type (Homo sapiens) (UniProt P05771)", 2.32),
    ("NS(=O)(=O)c1ccc(N/N=C2\\C(=O)Nc3ccc(Cl)cc32)cc1", "Protein kinase C beta type (Homo sapiens) (UniProt P05771)", 0.92),
    ("CCCN1CCCC(c2ccc(Nc3nc(Nc4cc(F)ccc4C(N)=O)c4cc[nH]c4n3)c(OC)c2)C1 (stereo not given)", "Protein kinase C beta type (Homo sapiens) (UniProt P05771)", 1.85),
    ("NC(=O)c1cccc(Nc2nccc(Nc3cccc(F)c3)n2)c1", "Protein kinase C beta type (Homo sapiens) (UniProt P05771)", 2.1),
]

Any idea what its inhibition is? The compound is `O=C(Nc1ccc(Oc2ccc3[nH]c(NC(=O)c4ccco4)nc3c2)cc1)Nc1cc(C(F)(F)F)ccc1F`
0.05

Could you do the same for `N#Cc1c(NC(=O)c2ccccc2F)sc2c1CCCC2` , please?
-0.47
